# TESTED_TARGET: UniProt:P35372
# Sequence (P35372 whole entry): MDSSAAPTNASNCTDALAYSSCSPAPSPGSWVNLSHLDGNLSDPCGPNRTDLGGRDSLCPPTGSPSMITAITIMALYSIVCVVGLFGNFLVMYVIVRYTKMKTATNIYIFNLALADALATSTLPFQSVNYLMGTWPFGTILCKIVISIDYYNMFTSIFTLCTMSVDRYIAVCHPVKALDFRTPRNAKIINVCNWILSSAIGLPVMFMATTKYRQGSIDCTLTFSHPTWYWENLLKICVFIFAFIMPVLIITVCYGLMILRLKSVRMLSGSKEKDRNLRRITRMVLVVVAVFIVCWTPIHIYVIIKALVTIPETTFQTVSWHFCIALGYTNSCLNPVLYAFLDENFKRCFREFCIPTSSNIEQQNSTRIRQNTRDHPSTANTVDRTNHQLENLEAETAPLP
# ASSAY_OVERVIEW: Agonist activity at human MOR expressed in CHOK1 cells assessed as […] of cAMP accumulation incubated for 45 mins by HTRF assay relative to DAMGO
# Format: functional, cell-based
QUANTITY: Emax (%)
Numbers only here, please. The scale is %.

Query (compound): CC1OC2(CCN(CCc3ccccc3)CC2)CN(c2cnccc2C(F)(F)F)C1=O (stereo not drawn) ; field requested: Emax
96

Query (compound): CC1OC2(CCN(CCc3cccc(F)c3)CC2)CN(c2ccccc2)C1=O (stereo not drawn) ; field requested: Emax
94

Query (compound): CC1OC2(CCN(CCc3ccccc3)CC2)CN(c2cccnc2)C1=O (stereo not drawn) ; field requested: Emax
54
